Data credit: paper PMC7556464

# SYSTEM_NAME: T1, factor H binding protein (fHbp) variant 1.1, recombinant (Neisseria meningitidis MC58, fHbp v1.1)
# T1 construct: also called fHbp v1.1; fHbp v1; source: E. coli BL21(DE3), purified (Ni-NTA, SEC when necessary); not shown: His6, C-terminal, kept
# T1 chain: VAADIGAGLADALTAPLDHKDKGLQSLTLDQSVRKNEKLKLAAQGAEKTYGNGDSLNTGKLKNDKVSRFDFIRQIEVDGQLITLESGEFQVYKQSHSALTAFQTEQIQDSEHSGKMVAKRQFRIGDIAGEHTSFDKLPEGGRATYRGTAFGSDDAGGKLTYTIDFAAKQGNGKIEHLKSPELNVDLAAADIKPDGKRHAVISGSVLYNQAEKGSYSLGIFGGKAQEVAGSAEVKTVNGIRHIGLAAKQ
# PROTOCOL_SUMMARY: SPR
# DETAILS: both partners purified
# Kd per entry
PROPERTY_NAME: Kd

{"BINDER": "human anti-fHbp mAb 1E10 (antibody, V domains shown, IgG1; source: Expi293, transient transfection, purified (protein G Sepharose)) VH: QVQLVESGGDLVKPGGSLRLSCVASGFTFSSYTMNWVRQAPGKGLEWVSSITSSSSFTYYADSVKGRFIISRDNAKNSLSLQMNNLRVEDTATYYCARRKDSSDYDWYYYYGMDVWGLGTTVTVSS VL: QSVVTQPPSVSAAPGQKVTISCSGSSSNIGDNYMSWYQQIPGTAPKLLIFDNDQRPSGIPDRFSASKSGTSATLDITGFQTGDEADYYCGTWDSGLSAPVFGGGTKLTVL", "PROPERTY_NAME": "Kd", "TEST_VALUE": "1.54 nM"}
{"BINDER": "human anti-fHbp mAb 3G7 (antibody, V domains shown, IgG1; source: Expi293, transient transfection, purified (protein G Sepharose)) VH: EVQLLQSGGGLVKPGGSLRLSCAASGFPFSSYYMSWIRQAPGKGLEWVSDINNSGNVKEYADFVKGRLTISRDNVKNSMYLHMNSLRVEDTAVYYCARNRGRFDVWGQGTLVTVSA VL: EIVLTQSPGTLSLSPGETATLSCRASQMISSPFLAWYQQRRGQAPRLLIYGASTRATDTPDRFRGSGSGTDFILTISRLEPEDFAVYYCQYYDDSPFTFGQGTKLEIK", "PROPERTY_NAME": "Kd", "TEST_VALUE": "0.344 nM"}
{"BINDER": "human anti-fHbp mAb 3F1 (antibody, V domains shown, IgG1; source: Expi293, transient transfection, purified (protein G Sepharose)) VH: EVHLVESGGGLVKPGGSLRLSCAASGFTFSSYTMNWVRQAPGKGLEWVSSISSSSGYIYYADSLKGRFTISRDNAKNSLFLQMNSLRAEDTAVYFCARDKVLPAPPGFYGLDVWGPGTTVTVSS VL: QSVVTQPPSVSAAPGQKVTISCSGSSSNIEDNFVSWYQQLPGTAPKLLIYDNNQRPSGIPDRFSGSKSGTSATLGITGLQTGDEADYYCATWDNSLSARVFGGGTKLTVL", "PROPERTY_NAME": "Kd", "TEST_VALUE": "1.04 nM"}
{"BINDER": "human anti-fHbp mAb 5F12 (antibody, V domains shown, IgG1; source: Expi293, transient transfection, purified (protein G Sepharose)) VH: EVQLVESGGDLVKPGGSLRLSCAASGFTFSNYTMNWVRQAPGKGLEWVSSITSSSSFKYYADSVKGRFTISRDNAKNSVFLQMNSLRAEDTAIYYCARRIDSSDQDWFYYYGMDVWGLGTTVTVSS VL: QSVLTQPPSVSAAPGQRVTISCSGSSSNIGDNYISWYQQLPGTAPKLLIYDNDQRPSGTPDRFSASKSGTSATLGVTGLQTGDEADYYCGTWDSSLNAPVFGSGTKVTVL", "PROPERTY_NAME": "Kd", "TEST_VALUE": "1.01 nM"}
{"BINDER": "human anti-fHbp mAb 4B3 (IgG1) (antibody, V domains shown, IgG1; source: Expi293, transient transfection, purified (protein G Sepharose)) VH: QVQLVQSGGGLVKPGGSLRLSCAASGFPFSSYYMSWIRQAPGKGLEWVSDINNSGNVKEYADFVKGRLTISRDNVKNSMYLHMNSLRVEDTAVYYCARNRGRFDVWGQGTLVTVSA VL: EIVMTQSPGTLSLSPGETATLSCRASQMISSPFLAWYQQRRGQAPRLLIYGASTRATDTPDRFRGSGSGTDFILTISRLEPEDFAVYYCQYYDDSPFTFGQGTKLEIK", "PROPERTY_NAME": "Kd", "TEST_VALUE": "0.328 nM"}
